Reference source: the supplement of paper PMC6555819

- Tested on: THRa homodimer (NR concentration 90 nM)
- experiment description: PBM binding z-score (relative to random genomic background probes); higher = stronger binding; sequences stand for … in GC…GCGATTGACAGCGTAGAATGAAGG
Use y when the recorded PBM binding z-score is no lower than 0.6; use n when it is lower.

[
  {
    "query sequence": "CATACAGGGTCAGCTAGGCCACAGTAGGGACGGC",
    "cat": "y"
  },
  {
    "query sequence": "AGAATGAGGTTACCAAAAATCAGGGAAACGCTTG",
    "cat": "y"
  },
  {
    "query sequence": "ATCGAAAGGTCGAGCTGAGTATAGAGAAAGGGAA",
    "cat": "n"
  },
  {
    "query sequence": "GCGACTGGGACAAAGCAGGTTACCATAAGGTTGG",
    "cat": "n"
  },
  {
    "query sequence": "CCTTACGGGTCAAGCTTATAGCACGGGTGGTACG",
    "cat": "n"
  },
  {
    "query sequence": "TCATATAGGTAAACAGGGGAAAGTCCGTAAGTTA",
    "cat": "n"
  },
  {
    "query sequence": "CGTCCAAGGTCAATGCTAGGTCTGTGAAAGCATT",
    "cat": "y"
  },
  {
    "query sequence": "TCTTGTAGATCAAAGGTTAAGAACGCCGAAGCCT",
    "cat": "n"
  },
  {
    "query sequence": "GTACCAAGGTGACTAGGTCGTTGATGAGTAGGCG",
    "cat": "n"
  },
  {
    "query sequence": "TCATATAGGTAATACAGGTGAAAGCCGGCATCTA",
    "cat": "n"
  },
  {
    "query sequence": "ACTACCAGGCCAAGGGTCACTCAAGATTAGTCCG",
    "cat": "y"
  },
  {
    "query sequence": "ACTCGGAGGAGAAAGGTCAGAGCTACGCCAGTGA",
    "cat": "n"
  },
  {
    "query sequence": "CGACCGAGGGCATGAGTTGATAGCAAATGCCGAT",
    "cat": "n"
  },
  {
    "query sequence": "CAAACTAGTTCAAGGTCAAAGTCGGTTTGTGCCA",
    "cat": "y"
  },
  {
    "query sequence": "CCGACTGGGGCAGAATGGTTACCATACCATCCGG",
    "cat": "n"
  },
  {
    "query sequence": "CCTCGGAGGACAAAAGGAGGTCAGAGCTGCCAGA",
    "cat": "y"
  },
  {
    "query sequence": "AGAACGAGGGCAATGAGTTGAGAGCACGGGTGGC",
    "cat": "n"
  },
  {
    "query sequence": "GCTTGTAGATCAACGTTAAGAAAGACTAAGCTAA",
    "cat": "n"
  },
  {
    "query sequence": "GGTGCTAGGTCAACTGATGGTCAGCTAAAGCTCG",
    "cat": "y"
  },
  {
    "query sequence": "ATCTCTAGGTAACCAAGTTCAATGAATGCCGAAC",
    "cat": "y"
  },
  {
    "query sequence": "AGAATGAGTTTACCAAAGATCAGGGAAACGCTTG",
    "cat": "n"
  },
  {
    "query sequence": "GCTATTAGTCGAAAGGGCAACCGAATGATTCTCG",
    "cat": "n"
  },
  {
    "query sequence": "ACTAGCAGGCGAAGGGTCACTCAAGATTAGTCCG",
    "cat": "n"
  },
  {
    "query sequence": "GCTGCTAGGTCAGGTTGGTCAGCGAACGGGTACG",
    "cat": "n"
  },
  {
    "query sequence": "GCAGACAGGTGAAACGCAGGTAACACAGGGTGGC",
    "cat": "n"
  },
  {
    "query sequence": "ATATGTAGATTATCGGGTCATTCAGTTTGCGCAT",
    "cat": "y"
  },
  {
    "query sequence": "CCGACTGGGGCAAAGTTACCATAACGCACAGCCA",
    "cat": "n"
  },
  {
    "query sequence": "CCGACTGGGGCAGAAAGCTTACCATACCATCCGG",
    "cat": "n"
  },
  {
    "query sequence": "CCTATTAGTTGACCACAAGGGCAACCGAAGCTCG",
    "cat": "y"
  },
  {
    "query sequence": "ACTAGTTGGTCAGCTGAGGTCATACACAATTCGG",
    "cat": "y"
  },
  {
    "query sequence": "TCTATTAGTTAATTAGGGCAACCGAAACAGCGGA",
    "cat": "y"
  },
  {
    "query sequence": "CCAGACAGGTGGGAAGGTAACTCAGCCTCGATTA",
    "cat": "n"
  },
  {
    "query sequence": "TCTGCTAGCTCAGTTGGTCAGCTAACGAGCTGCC",
    "cat": "n"
  },
  {
    "query sequence": "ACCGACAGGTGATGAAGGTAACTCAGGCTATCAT",
    "cat": "n"
  },
  {
    "query sequence": "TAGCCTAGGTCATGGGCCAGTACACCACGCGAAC",
    "cat": "y"
  },
  {
    "query sequence": "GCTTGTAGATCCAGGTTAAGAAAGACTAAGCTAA",
    "cat": "n"
  },
  {
    "query sequence": "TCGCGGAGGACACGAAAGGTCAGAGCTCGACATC",
    "cat": "y"
  },
  {
    "query sequence": "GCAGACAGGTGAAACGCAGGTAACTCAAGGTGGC",
    "cat": "n"
  },
  {
    "query sequence": "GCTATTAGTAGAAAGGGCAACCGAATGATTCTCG",
    "cat": "n"
  }
]
